Kindly state Kd for each of the entries shown.
Target: T1, BANP full-length WT (human, UniProt Q8N9N5 1-519)
T1 sequence: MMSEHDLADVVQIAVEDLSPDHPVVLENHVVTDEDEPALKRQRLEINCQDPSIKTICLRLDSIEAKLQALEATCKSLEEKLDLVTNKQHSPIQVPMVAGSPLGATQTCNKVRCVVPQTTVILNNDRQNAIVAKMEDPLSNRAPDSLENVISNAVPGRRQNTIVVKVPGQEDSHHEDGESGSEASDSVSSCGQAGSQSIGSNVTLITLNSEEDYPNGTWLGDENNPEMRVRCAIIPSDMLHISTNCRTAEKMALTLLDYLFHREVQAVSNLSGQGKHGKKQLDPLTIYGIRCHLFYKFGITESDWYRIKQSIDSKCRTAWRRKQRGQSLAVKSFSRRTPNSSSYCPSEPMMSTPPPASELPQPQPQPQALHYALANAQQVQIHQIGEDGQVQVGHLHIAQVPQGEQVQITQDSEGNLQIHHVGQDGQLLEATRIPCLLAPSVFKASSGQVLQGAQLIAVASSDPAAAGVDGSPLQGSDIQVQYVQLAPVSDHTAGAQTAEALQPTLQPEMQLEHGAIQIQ
Assay: ITC; ITC: 20 mM Tris pH 7.5, 200 mM NaCl, 2 mM beta-mercaptoethanol, 20 C; EMSA: 20 mM Tris pH 7.0, 200 mM NaCl, 2 mM DTT, 4 C, 1.2% agarose in TAE
Details: protein: recombinant; tags: His-SUMO or His-MBP, cleaved; chain copies: 4; blunt, self-complementary
Give the value, in units of µM, as a plain number.

Sample 12-mCGCG (dsDNA, 5-methyl-C at position 5 of each strand (palindrome; called hemi-methylated, one CpG methylated)) DNA 1: ATCTCGCGAGAT DNA 2: ATCTCGCGAGAT ; Kd observed: 4.9

According to the records, this binder 12-CGCG (dsDNA) DNA 1: ATCTCGCGAGAT DNA 2: ATCTCGCGAGAT displays Kd of 3.4
